# target-or-system: recombinant cynomolgus monkey PAPPA (cynomolgus monkey, UniProt A0A2K5WE98 87-1619)
# Sequence (A0A2K5WE98 entry or part of it): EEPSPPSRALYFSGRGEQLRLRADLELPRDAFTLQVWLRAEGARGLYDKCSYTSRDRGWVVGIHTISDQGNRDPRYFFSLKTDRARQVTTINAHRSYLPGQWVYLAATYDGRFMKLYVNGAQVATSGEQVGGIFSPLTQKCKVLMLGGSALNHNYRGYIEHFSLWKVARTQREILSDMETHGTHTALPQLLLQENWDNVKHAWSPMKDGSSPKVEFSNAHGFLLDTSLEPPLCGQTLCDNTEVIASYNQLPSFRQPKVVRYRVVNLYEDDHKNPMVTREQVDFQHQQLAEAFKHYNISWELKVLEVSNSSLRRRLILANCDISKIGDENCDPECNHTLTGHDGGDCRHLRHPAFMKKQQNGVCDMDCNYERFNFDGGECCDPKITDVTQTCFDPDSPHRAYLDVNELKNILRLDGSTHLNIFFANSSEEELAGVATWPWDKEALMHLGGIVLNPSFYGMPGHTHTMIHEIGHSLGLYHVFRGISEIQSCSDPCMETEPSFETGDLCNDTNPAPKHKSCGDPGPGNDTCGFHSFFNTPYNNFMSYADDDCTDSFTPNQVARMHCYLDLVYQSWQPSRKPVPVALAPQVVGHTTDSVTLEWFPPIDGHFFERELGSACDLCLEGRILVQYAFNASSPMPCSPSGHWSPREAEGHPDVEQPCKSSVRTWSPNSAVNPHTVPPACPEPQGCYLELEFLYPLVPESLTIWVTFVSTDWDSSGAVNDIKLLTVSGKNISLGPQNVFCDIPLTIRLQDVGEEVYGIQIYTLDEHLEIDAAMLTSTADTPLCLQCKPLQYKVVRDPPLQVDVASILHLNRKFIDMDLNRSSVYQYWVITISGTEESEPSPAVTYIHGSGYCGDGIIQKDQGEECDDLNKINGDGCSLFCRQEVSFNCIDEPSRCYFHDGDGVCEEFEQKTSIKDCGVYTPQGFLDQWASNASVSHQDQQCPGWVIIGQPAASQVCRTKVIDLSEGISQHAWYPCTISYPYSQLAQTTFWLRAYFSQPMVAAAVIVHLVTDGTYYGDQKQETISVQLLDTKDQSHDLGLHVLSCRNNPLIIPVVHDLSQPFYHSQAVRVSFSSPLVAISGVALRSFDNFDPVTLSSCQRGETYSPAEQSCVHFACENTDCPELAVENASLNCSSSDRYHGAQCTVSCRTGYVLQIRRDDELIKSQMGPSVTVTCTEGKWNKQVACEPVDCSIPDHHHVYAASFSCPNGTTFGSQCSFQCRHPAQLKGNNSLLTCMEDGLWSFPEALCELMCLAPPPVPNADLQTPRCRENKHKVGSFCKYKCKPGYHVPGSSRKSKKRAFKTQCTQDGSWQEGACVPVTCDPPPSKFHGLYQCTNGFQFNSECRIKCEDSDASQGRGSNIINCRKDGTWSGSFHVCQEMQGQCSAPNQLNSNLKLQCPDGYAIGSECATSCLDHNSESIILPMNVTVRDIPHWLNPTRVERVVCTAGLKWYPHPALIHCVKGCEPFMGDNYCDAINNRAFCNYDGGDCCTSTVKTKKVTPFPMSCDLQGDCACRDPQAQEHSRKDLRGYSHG
# measurement-notes: cell-based or functional assay
value-type: rec. Cyno PAPP-A IGFBP4 pIC50 (G-401 pAKT assay) (pIC50)
Express it in pIC50; write the number only.

Use the examples below as a reference point.
binder: TPP-12744 (antibody, human IgG1, kappa, V domains shown, human IgG1/kappa, Fc-disabled (L235A, G237A)) VH: QVQLVQSGAEVKKPGASVKVSCKASGYTFTSYAMHWVRQAPGQRLEWMGWMNAGTGATKSSQKFQGRVTITRDTSASTAYMELSSLRSEDTAVYYCARGPSMETPTTFGMDVWGQGTTVTVSS VL: DIQMTQSPSSVSASVGDRVTITCRASQGISRWLAWYQQKPGKAPKLLIYAASSLQSGVPSRFSGSGSGTDFTLTISSLQPEDFATYYCQQENAYPFTFGGGTKVEIKR
observed-value: 9.56
//
binder: TPP-12821 (antibody, human IgG1, kappa, V domains shown) VH: EVQLVQSGAEVKKPGESLKISCKGSGYSFTSDWIGWVRQAPGKGLEWMGIIYPGGSDTRYSPSFRGQVTISADKSISTAYLQWSSLKASDTAVYYCARGPLRSDYVDVWGQGTMVTVSS VL: EIVMTQSPATLSVSPGERATLSCRASQSVGSNLAWYQQKPGQAPRLLIYRASTRATGIPARFSGSGSGTEFTLTISSLQSEDFAVYYCQQPYVWPITFGGGTKVEIKR
observed-value: 9.85

Request: Given TPP-12801 (antibody, human IgG1, kappa, V domains shown) VH: QLQLQESGPGLVKPSETLSLTCTVSGGSISSSDYYWGWIRQPPGKGLEWIGSIFYSGSTYYNPSLKSRVTISVDTSKNQFSLKLSSVTAADTAVYYCARATTSSSADYWGQGTLVTVSS VL: DIQMTQSPSSVSASVGDRVTITCRASQGVSRWLAWYQQKPGKAPKLLIYAASSLQSGVPSRFSGSGSGTDFTLTISSLQPEDFATYYCQQGNVPPLTFGGGTKVEIKR , state its recorded rec. Cyno PAPP-A IGFBP4 pIC50 (G-401 pAKT assay).
Result: 9.76
